compounds and their reported IC50
- System tested: Mitochondrial complex I; NADH oxidoreductase (Bos taurus, UniProt P25708+P52505)
- Sequence (P25708 21-464 limits assumed, other chains not shown): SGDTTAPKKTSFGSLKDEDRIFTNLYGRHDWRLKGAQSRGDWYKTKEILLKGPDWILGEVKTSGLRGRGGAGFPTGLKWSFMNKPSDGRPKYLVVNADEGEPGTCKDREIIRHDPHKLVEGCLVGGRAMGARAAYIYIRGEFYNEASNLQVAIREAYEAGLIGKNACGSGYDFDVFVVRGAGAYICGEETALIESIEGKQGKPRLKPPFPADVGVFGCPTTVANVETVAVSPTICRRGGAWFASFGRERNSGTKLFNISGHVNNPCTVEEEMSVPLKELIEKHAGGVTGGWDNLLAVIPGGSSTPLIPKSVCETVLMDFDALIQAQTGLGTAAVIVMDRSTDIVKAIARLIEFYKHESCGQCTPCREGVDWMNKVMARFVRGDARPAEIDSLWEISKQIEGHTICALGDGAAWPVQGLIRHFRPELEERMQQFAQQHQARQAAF
- Measurement description: Inhibitory concentration needed to halve the control NADH oxidase activity in bovine heart submitochondrial particles (SMP)
Give the number; nM is assumed, so skip it.

For orientation, consider the following solved cases.
CCCCCCCCCC[C@@H](O)[C@H]1CC[C@H]([C@H]2CC[C@H]([C@H](O)CCCCCCCCCCCCC3=C[C@H](C)OC3=O)O2)O1 [ISODESAACETYLUVARICIN] | 0.75
CCCCCCCCCC[C@@H](O)[C@H]1CC[C@H]([C@H]2CC[C@H](CCCCCCCCCCCCCC3=C[C@H](C)OC3=O)O2)O1 | 2.7

IC50 reported for this compound CCCCCCCCCCC[C@H]1CC[C@H]([C@H]2CC[C@H]([C@H](O)CCCCCCCCCCCCC3=C[C@H](C)OC3=O)O2)O1 : 3.1

IC50 reported for this compound CCCCCCCCCCC[C@H]1CC[C@H]([C@H]2CC[C@H](CCCCCCCCCCCCCC3=C[C@H](C)OC3=O)O2)O1 : 85
